- ASSAY_NOTES: Lipid A binding competition with [125I]-rLBP
Ends that are not written are not given here.
In this section, each of the substances is paired with its reported IC50 (inhibition of Lipid A binding of radiolabeled rLBP).
MEASURED_METRIC: IC50 (inhibition of Lipid A binding of radiolabeled rLBP)

{"columns": ["SUBSTANCE", "REPORTED_VALUE"],
 "data": [
  ["KSKVGWLIQLFHKKKSKVGWLIQLFHKK-NH2 (C-terminus assumed) [BPI.29]", "0.44 µg/mL"],
  ["KWKAQKRFLKKSKVGWLIQLFHKK-NH2 (C-terminus assumed) [BPI.30]", "0.75 µg/mL"],
  ["IKISGKWKAQKRFLK [BPI.2]", "2.36 µg/mL"],
  ["NVGLKFSISNANIKISGKWKAQKRFLK [BPI.3]", "0.75 µg/mL"],
  ["KWKAAARFLKKWKAAARFLK [BPI.48]", "0.48 µg/mL"],
  ["KSKVGWLIQLFHKK-NH2 (C-terminus assumed) [BPI.13]", "1.7 µg/mL"],
  ["KWKAQKRFLKKWKAQKRFLK-NH2 (C-terminus assumed) [BPI.7]", "0.26 µg/mL"]
]}
